# TARGET_SYSTEM: Short transient receptor potential channel 4 (Mus musculus) (UniProt Q9QUQ5)
# Sequence (Q9QUQ5 whole entry, looked up): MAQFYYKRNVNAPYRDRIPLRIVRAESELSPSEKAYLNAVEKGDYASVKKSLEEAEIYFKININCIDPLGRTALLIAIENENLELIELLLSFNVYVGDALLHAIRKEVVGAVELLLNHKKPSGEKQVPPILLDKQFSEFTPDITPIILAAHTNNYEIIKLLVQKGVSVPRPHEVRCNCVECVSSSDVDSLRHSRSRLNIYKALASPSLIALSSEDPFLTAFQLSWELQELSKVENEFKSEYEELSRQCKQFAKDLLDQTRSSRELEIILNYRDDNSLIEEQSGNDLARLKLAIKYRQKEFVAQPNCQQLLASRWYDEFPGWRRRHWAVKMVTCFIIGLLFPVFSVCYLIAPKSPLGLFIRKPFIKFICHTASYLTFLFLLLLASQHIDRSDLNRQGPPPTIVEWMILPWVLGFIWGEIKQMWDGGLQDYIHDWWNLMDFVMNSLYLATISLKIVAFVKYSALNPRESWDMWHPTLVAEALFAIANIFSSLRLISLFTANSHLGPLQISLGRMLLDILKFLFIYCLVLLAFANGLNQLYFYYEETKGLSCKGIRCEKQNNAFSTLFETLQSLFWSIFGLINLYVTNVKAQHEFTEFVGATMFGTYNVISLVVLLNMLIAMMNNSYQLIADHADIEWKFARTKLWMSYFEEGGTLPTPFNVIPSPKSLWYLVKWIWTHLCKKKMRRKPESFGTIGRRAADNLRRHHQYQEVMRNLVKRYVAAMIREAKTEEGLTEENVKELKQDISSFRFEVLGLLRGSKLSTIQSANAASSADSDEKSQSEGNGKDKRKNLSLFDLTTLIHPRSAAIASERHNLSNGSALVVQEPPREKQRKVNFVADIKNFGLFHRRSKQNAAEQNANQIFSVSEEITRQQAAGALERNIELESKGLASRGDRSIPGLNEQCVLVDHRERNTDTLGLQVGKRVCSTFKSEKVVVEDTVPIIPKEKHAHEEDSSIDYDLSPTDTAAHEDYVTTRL
# MEASUREMENT_NOTES: blockers of DAMGO-evoked TRPC4 calcium flux – cell-based, second round, Fluo4, HEK293 TRPC4beta/mu-opioid, 1 µM, confirmation (AID 2637)
# PARTICULARS: at 1 µM
Calls of active or inactive are those of the source.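 The calls were made as follows: active = calcium signal ratio cut to more than 3 SD under the fully stimulated control mean yet still positive, in both repeats and the primary screen; inactive = the rest.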
A correct response names exactly one class from label 1 = active, label 0 = inactive

Cc1ccn2c(-c3csc(NCc4ccco4)n3)c(C)nc2c1; label 0
CN1CCN(c2ccc(Cl)cc2NC(=O)/C=C/c2cccc(F)c2)CC1; label 0
CC[n+]1c(/C=C/Nc2ccccc2)oc2ccc(OC)cc21; label 0
CN(C)c1ccc(C(=S)N2CCN(c3ccc([N+](=O)[O-])cc3)CC2)cc1; label 0
CC(=O)Oc1ccc(/C=C(\NC(=O)c2ccco2)C(=O)NCc2ccccc2)cc1; label 0
CC1Cc2ccccc2N1C(=O)CSc1nc2c(c(=O)n(C)c(=O)n2C)n1Cc1ccc(F)cc1 (configuration not stated); label 0
COc1cccc(Cn2c(Oc3ccccc3)nc3c2c(=O)n(C)c(=O)n3C)c1; label 1
c1csc(-c2nc(NCC3CCCO3)c3ccccc3n2)c1 (configuration not stated); label 0
C=CCn1c(SCCN2CCCC2)nc2c([nH]c3ccccc32)c1=O; label 0
CCCn1c(NCc2cc(OC)ccc2OC)nc2ccccc21; label 0

From here, focus on the item given below.
input: What is the recorded call for this compound in the test? `COC(=O)[C@@]12CCCN1[C@H](c1ccc(-c3ccc(OC)cc3)cc1)[C@@H]1C(=O)N(C)C(=O)[C@@H]12`
output: label 0
